Data origin, for the record: patent US20240400689A1

Kindly supply the reported koff values for the records listed here.
# measured on: T1, HUMAN B7H3 (Biacore analyte) (human, UniProt Q5ZPR3 29-461, limits assumed)
# T1 construct: also called hB7H3
# T1 sequence (looked up): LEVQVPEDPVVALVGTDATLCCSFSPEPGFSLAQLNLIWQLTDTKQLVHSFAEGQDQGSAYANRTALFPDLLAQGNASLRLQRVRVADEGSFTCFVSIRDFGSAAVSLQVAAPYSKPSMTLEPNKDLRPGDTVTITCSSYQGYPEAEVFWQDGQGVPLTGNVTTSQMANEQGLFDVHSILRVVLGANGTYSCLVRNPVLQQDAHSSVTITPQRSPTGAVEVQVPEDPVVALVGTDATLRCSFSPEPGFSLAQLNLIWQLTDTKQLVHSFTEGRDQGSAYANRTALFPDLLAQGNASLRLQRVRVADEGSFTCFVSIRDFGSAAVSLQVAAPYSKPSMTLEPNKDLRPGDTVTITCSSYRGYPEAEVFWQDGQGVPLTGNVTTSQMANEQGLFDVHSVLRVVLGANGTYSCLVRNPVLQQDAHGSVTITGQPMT
# test: SPR, Biacore 8K, antibody captured, B7H3 as analyte, 1:1 binding
The reply should consist of the numeric value with the unit placed after it.

The cases that follow already have their koff on record.
- binder: "27-F8-E10-E11 (human IgG1 chimeric antibody) (antibody, V domains shown, human IgG1 chimeric antibody of the mouse clone) VH: EVQLQQSGPELVKPGASVKISCKTSGYTFTEYAMHWVKQSHGKILEWIGGINPNIGGTTYNQKFKDKATLTVDKSSSTASMELRSLTSEDSAVYYCARFLVPSTEGFTYWGQGTLVTVSA VL: QIVLTQSPAIMSASPGEKVTMTCSASSSVSYMHWYQQKSGTSPKRWIYDTSRVASGVPARFSGSGSGTSYSLTISSMEAEDAATYYCQQWSSNPLTFGAGTKLELK"
  koff: "0.000173 s⁻¹"
- binder: "25-C8-D7-C5 (human IgG1 chimeric antibody) (antibody, V domains shown, human IgG1 chimeric antibody of the mouse clone) VH: EVQLQESGGGLVKPGGSLKFSCAASGFTFSTYAMSWVRQTPEKRLEWVATISGGGIDTYYPDSVKGRFTISRDNAKNTLYLQMNSLRSEDTAMYYCARQGSKGWGAMDYWGQGTSVTVSS VL: QIVLTQSPAIMSASPGEKVTMTCRASSSVSFMHWYQQKSGTSPKRWIYETSKLASGVPDRFSGSGSGTSYSLTISSMEAEDAATYYCQQWSSNPLTFGAGTKLELK"
  koff: "0.000243 s⁻¹"
- binder: "16-G3-D10-C10 (human IgG1 chimeric antibody) (antibody, V domains shown, human IgG1 chimeric antibody of the mouse clone) VH: QIQLVQSGPELKKPGETVKISCKASGYTFRNYGMNWVKQGPGKDLKWMGWINPYTGEPTYIGDFKGRFAFSLETSANSAYLQINNLNNEDMATYFCARDDGYWYTMDYWGQGTSVTVSS VL: DVVMTQTPPSLPVSLGDQASIPCRSSQSLVHSNGITYLHWYLQKPGQSPKLLIYKVSNRFSGVPDRFSGSGSGTDFTLKISRVEAEDLGVYFCSQSTHVPWTFGGGTKLEIK"
  koff: "0.000214 s⁻¹"
- binder: "15-G1-D1-E3 (human IgG1 chimeric antibody) (antibody, V domains shown, human IgG1 chimeric antibody of the mouse clone) VH: QVQLQQPGAELVKPGTSVKLSCKASGYTFTSYWIHWVKQRPGQGLEWIGMIHPKSGTVDYNEKFKSKATLTADKSSNTAYMQLSSLTSEASVVYYCARGENYDYRPQFVYWGQGTLVTVSA VL: QLVLTQSSSASFSLGASAKLTCTLSSQHSTYTIEWYQQQPLKPPKYVMELKKDGSHRTGDGIPDRFSGSSSGADRYLSISNIQPEDEAIYICGVGDTIKEQFVYVFGGGTKVTVL"
  koff: "0.000211 s⁻¹"

Turning to the following binder.
Suppose we examine the binder 10-B9-D10-A12 (human IgG1 chimeric antibody) (antibody, V domains shown, human IgG1 chimeric antibody of the mouse clone) VH: EVQLQESGPELVRPGVSVKISCKGSGYTFTDYTMHWVKLSHAKSLEWIGVISTYYGNTNYNQKFKGKATLTVDKSSSTAYMELARLTSEDSAIYYCARASYGSGYGPYYWYFDVWGAGTTVTVSS VL: DIQMTQSPASLFASVGETVTITCRASEKIYSYLAWYFQKQGKSPQFLVYNANALAEGVPSRFSGSGSGTQFSLKINSLQPEDFGTYYCQHHYGTPVTFGAGSKLELK ; what koff value has been reported?
0.000282 s⁻¹
